TARGET_DESC: HLA-B*57:01
ASSAY_INFO: IEDB peptide-MHC binding, purified MHC/direct/fluorescence; filed as Kd, often an IC50 or EC50 that approximates it; bounds were set here for any values at or beyond the usual limits of such assays
CONDITION_INFO: source organism: Giardia lamblia ATCC 50803
READOUT_LABEL: pKd
pKd field: float, defined as -log10 of concentration (mol/L).

query: Record `SARGLCNTW` : what is its pKd with HLA-B*57:01?
result: 6.95

====

TARGET_DESC: HLA-A*02:01
ASSAY_INFO: IEDB peptide-MHC binding, purified MHC/competitive/fluorescence; filed as Kd, often an IC50 or EC50 that approximates it; bounds were set here for any values at or beyond the usual limits of such assays
CONDITION_INFO: source organism: Giardia lamblia ATCC 50803
READOUT_LABEL: Kd

query: Using the record for `DEYGPVFVE` , report its Kd.
result: ≥ 20 µM

====

TARGET_DESC: HLA-A*02:01
ASSAY_INFO: IEDB peptide-MHC binding, purified MHC/direct/fluorescence; filed as Kd, often an IC50 or EC50 that approximates it; bounds were set here for any values at or beyond the usual limits of such assays
CONDITION_INFO: source organism: Mycobacterium avium 104
pKd: −log10 of the molar value.
READOUT_LABEL: pKd

query: Param item = `VYLPGRGGV` ; retrieve measured pKd.
result: ≤ 4.70

====

TARGET_DESC: HLA-A*02:01
ASSAY_INFO: IEDB peptide-MHC binding, purified MHC/competitive/fluorescence; bounds were set here for any values at or beyond the usual limits of such assays
CONDITION_INFO: source organism: Pan troglodytes
pIC50: −log10 of the molar value.
READOUT_LABEL: pIC50

query: Would you mind telling me what pIC50 value was observed for `RPPYSSYGY` ?
result: ≤ 4.70

====

TARGET_DESC: HLA-B*46:01
ASSAY_INFO: IEDB peptide-MHC binding, purified MHC/competitive/fluorescence; filed as Kd, often an IC50 or EC50 that approximates it; bounds were set here for any values at or beyond the usual limits of such assays
CONDITION_INFO: source organism: Araucaria virus
READOUT_LABEL: Kd

query: What value of Kd has been recorded for this entry: `FLAAECPFL`
result: ≥ 20 µM

====

TARGET_DESC: HLA-A*24:02
ASSAY_INFO: IEDB peptide-MHC binding, purified MHC/competitive/radioactivity; filed as Kd, often an IC50 or EC50 that approximates it; bounds were set here for any values at or beyond the usual limits of such assays
CONDITION_INFO: source organism: Dengue virus 1 Brazil/97-11/1997
pKd: −log10 of the molar value.
READOUT_LABEL: pKd

query: Look up pKd with HLA-A*24:02 for this sequence: `EFFLMVLLI`
result: ≤ 4.40

====

So I've got a bunch of sequences here, and I need their Kd values.
TARGET_DESC: HLA-B*15:01
ASSAY_INFO: IEDB peptide-MHC binding, purified MHC/direct/fluorescence; filed as Kd, often an IC50 or EC50 that approximates it; bounds were set here for any values at or beyond the usual limits of such assays
CONDITION_INFO: source organism: Giardia lamblia ATCC 50803

query: Query: Kd; subject: `LTIVFVPEV`
result: ≥ 20 µM

query: Repeat with `ARADGILRF`
result: ≥ 20 µM

====

TARGET_DESC: HLA-A*26:02
ASSAY_INFO: IEDB peptide-MHC binding, purified MHC/competitive/fluorescence; filed as Kd, often an IC50 or EC50 that approximates it; bounds were set here for any values at or beyond the usual limits of such assays
CONDITION_INFO: source organism: Vaccinia virus Tian Tan
READOUT_LABEL: Kd (nM)
Give the value, in units of nM, as a plain number.

query: API: value(readout= Kd, system= HLA-A*26:02, query= `YYKDDISYF` )
result: 34.7

====

TARGET_DESC: HLA-A*68:02
ASSAY_INFO: IEDB peptide-MHC binding, purified MHC/competitive/radioactivity; filed as Kd, often an IC50 or EC50 that approximates it; bounds were set here for any values at or beyond the usual limits of such assays
CONDITION_INFO: source organism: Dengue virus 4 Philippines/H241/1956
READOUT_LABEL: pKd
// pKd is dimensionless: -log10 of concentration (M)

query: Endpoint output: pKd of `MAWRTIMAV` . Value?
result: 7.77

query: Let us now turn to `MTLWYMWQV`
result: 7.95

query: Repeat with `MVAGGLLLA`
result: 7.25

query: Another sequence to look at: `MVLAFITFL`
result: 7.72

query: Continue with `YTNSVTNIEL`
result: 7.70

query: Proceed to `MTCIAVGGI`
result: 7.13

query: Another: `TTANWLWALL`
result: 8.35

====

TARGET_DESC: HLA-A*02:11
ASSAY_INFO: IEDB peptide-MHC binding, purified MHC/competitive/fluorescence; filed as Kd, often an IC50 or EC50 that approximates it; bounds were set here for any values at or beyond the usual limits of such assays
CONDITION_INFO: source organism: Listeria monocytogenes serotype 4b str. H7858
pKd: −log10 of the molar value.
READOUT_LABEL: pKd

query: Lab note: need pKd for `ITWPRTRHW` on HLA-A*02:11, anyone have it?
result: ≤ 4.70

====

TARGET_DESC: HLA-B*27:05
ASSAY_INFO: IEDB peptide-MHC binding, purified MHC/direct/fluorescence; filed as Kd, often an IC50 or EC50 that approximates it; bounds were set here for any values at or beyond the usual limits of such assays
CONDITION_INFO: source organism: Influenza A virus (A/tern/Australia/1/04(H2N5))
READOUT_LABEL: Kd

query: Given the sequence `LLTEVETYV` , what is its reported Kd?
result: ≥ 20 µM

====

TARGET_DESC: HLA-A*23:01
ASSAY_INFO: IEDB peptide-MHC binding, purified MHC/competitive/fluorescence; filed as Kd, often an IC50 or EC50 that approximates it; bounds were set here for any values at or beyond the usual limits of such assays
CONDITION_INFO: source organism: Vibrio parahaemolyticus AQ3810
READOUT_LABEL: Kd

query: Consider the sequence `KVGYFQHGA` and give its measured Kd.
result: ≥ 20 µM

====

TARGET_DESC: HLA-A*33:01
ASSAY_INFO: IEDB peptide-MHC binding, purified MHC/competitive/radioactivity; filed as Kd, often an IC50 or EC50 that approximates it; bounds were set here for any values at or beyond the usual limits of such assays
CONDITION_INFO: source organism: Dengue virus 1 Singapore/S275/1990
READOUT_LABEL: Kd (nM)
Report the figure in nM without appending any unit label.

query: Sample `NMLNIMNRR` — what was its Kd?
result: 13.3

====

TARGET_DESC: HLA-A*02:03
ASSAY_INFO: IEDB peptide-MHC binding, purified MHC/competitive/fluorescence; filed as Kd, often an IC50 or EC50 that approximates it; bounds were set here for any values at or beyond the usual limits of such assays
CONDITION_INFO: source organism: Vibrio parahaemolyticus AQ3810
pKd: −log10 of the molar value.
READOUT_LABEL: pKd

query: What value of pKd has been recorded for this entry: `KVGYFQHGA`
result: ≤ 4.70

====

TARGET_DESC: HLA-A*31:01
ASSAY_INFO: IEDB peptide-MHC binding, purified MHC/direct/fluorescence; filed as Kd, often an IC50 or EC50 that approximates it; bounds were set here for any values at or beyond the usual limits of such assays
CONDITION_INFO: source organism: Orthohantavirus andesense
pKd: −log10 of the molar value.
READOUT_LABEL: pKd

query: Which pKd value belongs to `AYDHGNVIL` ?
result: ≤ 4.70

====

TARGET_DESC: HLA-A*68:01
ASSAY_INFO: IEDB peptide-MHC binding, purified MHC/competitive/radioactivity; filed as Kd, often an IC50 or EC50 that approximates it; bounds were set here for any values at or beyond the usual limits of such assays
CONDITION_INFO: source organism: Lassa virus Josiah
READOUT_LABEL: Kd (nM)
Just the number please, in nM, no unit attached.

query: # query: Kd | item `RTRDIYISR` | system: HLA-A*68:01
result: 825

====

TARGET_DESC: HLA-B*45:01
ASSAY_INFO: IEDB peptide-MHC binding, purified MHC/competitive/radioactivity; filed as Kd, often an IC50 or EC50 that approximates it; bounds were set here for any values at or beyond the usual limits of such assays
CONDITION_INFO: source organism: Lymphocytic choriomeningitis virus (strain Traub)
READOUT_LABEL: pKd
Value format note: pKd is -log10 of concentration (mol/L); just state the number.

query: Requested field: pKd. Item: `EEKGISGTS`
result: 5.65
